B1: tRNA (parent)
chain: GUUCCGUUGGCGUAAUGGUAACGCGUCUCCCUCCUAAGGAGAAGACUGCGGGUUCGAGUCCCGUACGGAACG

- Variants of: B1
- testDetails: yeast fitness relative to wild type (ratio to wild type); higher = fitter; tRNA-Arg(CCU), competitive growth, 37 C, YPD
Variants at the floor of the assay were thinned out.
observationType: yeast fitness

1. C11U C30U U47A G67C; ≤ 0.5

So, C27A U32C A42C C46U C62U ? Its yeast fitness was ≤ 0.5

The recorded yeast fitness for entry A20U C33A G44A C62U equals ≤ 0.5

The measured yeast fitness associated with C22G C60G C62U reads ≤ 0.5

// U3A C30G C55U A70U : yeast fitness value = ≤ 0.5

Documented yeast fitness of C27U U28G C29G : ≤ 0.5

Value of measured yeast fitness for the entry U3G C11U U19C A20U A42C C49U G56C : ≤ 0.5

Per the record, U3C C4U C60A C66G has yeast fitness of ≤ 0.5

Reported yeast fitness of C55G G58A A69C : ≤ 0.5

Looking up U2G U28A C29G G51A G56A G67C , I see its yeast fitness listed as ≤ 0.5

Lab note: C24G G56C U59C gave yeast fitness of ≤ 0.5

The reported value for C4U C33A A40U G68A in terms of yeast fitness is ≤ 0.5

Sure, the documented yeast fitness for C4G A37U G58C C60A is ≤ 0.5

Per the records, this variant ( C5G U26G G38C G51C ) has yeast fitness equal to ≤ 0.5

For A45G C62A A69C the variant record lists yeast fitness as 0.595

// yeast fitness value for G10C C27U A36C C61U A65G : ≤ 0.5

The recorded yeast fitness for C11U G38C G48A is 0.57

yeast fitness in this record for A37G C55G U64C : 0.633
